The measured values listed here are drawn from ChEMBL document CHEMBL4002590.

molecular target: Janus Kinase (JAK) (Homo sapiens, UniProt P52333+P23458+O60674+P29597); assay: Inhibition of JAK in human PBMC assessed as reduction in human recombinant IL-2/mouse anti-human CD3 stimulated IFNgamma production preincubated for 1 hr followed by IL2/CD3 stimulation measured after 18 hrs by ELISA
IC50 reference

smiles-record: CCc1cc(O)ccc1-c1ccc2c(-c3ncc[nH]3)n[nH]c2c1
test-system: Janus Kinase (JAK) (Homo sapiens, UniProt P52333+P23458+O60674+P29597)
qualifier-sign: =
IC50 [nM]: 10.4

smiles-record: CCc1c(-c2ccc3c(-c4nc5ccccc5[nH]4)n[nH]c3c2)ccc(O)c1F
test-system: Janus Kinase (JAK) (Homo sapiens, UniProt P52333+P23458+O60674+P29597)
qualifier-sign: =
IC50 [nM]: 204.8

smiles-record: CCc1cc(O)c(F)cc1-c1ccc2c(-c3nc4ccccc4[nH]3)n[nH]c2c1
test-system: Janus Kinase (JAK) (Homo sapiens, UniProt P52333+P23458+O60674+P29597)
qualifier-sign: =
IC50 [nM]: 47.9

smiles-record: CC(C)c1cc(O)ccc1-c1ccc2c(-c3nc4ccccc4[nH]3)n[nH]c2c1
test-system: Janus Kinase (JAK) (Homo sapiens, UniProt P52333+P23458+O60674+P29597)
qualifier-sign: =
IC50 [nM]: 250.3

smiles-record: CCc1cc(O)c(F)cc1-c1ccc2c(-c3nc4c([nH]3)CCN(C(=O)c3ccc(F)cc3)C4)n[nH]c2c1
test-system: Janus Kinase (JAK) (Homo sapiens, UniProt P52333+P23458+O60674+P29597)
qualifier-sign: =
IC50 [nM]: 35

smiles-record: CCc1cc(O)ccc1-c1ccc2c(C(=O)N(C)C)n[nH]c2c1
test-system: Janus Kinase (JAK) (Homo sapiens, UniProt P52333+P23458+O60674+P29597)
qualifier-sign: >
IC50 [nM]: 10000

* * *

# Non-receptor tyrosine-protein kinase TYK2 (Homo sapiens, UniProt P29597): IC50 values follow
# Sequence (P29597 whole entry): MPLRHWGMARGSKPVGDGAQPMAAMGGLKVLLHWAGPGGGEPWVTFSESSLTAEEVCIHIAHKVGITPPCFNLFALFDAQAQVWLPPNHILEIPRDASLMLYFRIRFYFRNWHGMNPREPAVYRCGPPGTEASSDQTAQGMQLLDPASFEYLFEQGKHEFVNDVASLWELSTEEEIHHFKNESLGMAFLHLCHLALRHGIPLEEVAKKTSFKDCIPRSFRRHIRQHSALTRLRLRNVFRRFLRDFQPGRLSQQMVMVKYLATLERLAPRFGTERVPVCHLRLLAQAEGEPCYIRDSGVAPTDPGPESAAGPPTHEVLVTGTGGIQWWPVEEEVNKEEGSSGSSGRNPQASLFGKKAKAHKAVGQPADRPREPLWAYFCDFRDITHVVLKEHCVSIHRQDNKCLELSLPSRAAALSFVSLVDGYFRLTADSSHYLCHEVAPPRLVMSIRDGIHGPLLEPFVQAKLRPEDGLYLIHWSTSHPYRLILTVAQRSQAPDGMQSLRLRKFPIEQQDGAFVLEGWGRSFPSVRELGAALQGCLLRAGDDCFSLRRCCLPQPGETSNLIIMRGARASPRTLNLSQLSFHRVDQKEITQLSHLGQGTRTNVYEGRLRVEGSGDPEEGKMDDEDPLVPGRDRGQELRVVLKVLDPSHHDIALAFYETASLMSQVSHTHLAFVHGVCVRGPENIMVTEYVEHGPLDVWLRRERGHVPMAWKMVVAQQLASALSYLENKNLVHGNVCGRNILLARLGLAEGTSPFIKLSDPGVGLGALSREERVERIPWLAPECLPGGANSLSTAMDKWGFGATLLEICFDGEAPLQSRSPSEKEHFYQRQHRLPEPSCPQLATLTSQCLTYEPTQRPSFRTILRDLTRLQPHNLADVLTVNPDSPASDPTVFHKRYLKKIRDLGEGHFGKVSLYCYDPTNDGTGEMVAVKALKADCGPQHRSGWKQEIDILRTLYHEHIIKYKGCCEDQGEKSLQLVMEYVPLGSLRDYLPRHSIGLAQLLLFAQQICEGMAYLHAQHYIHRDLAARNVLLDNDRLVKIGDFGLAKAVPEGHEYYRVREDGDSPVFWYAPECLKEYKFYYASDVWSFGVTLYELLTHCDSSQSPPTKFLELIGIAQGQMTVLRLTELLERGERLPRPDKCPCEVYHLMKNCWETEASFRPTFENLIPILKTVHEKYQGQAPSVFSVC
measured-attribute: IC50 (µM)

smiles-record: C[C@@H]1CCN(C(=O)N2CCCC2)C[C@@H]1N(C)c1ncnc2[nH]ccc12
quantitative-readout: 1.63
//
smiles-record: CCc1cc(O)ccc1-c1ccc2c(C(N)=O)n[nH]c2c1
quantitative-readout: 0.0545
//
smiles-record: CCc1cc(O)ccc1-c1ccc2c(-c3nc4c([nH]3)CN(S(C)(=O)=O)CC4)n[nH]c2c1
quantitative-readout: 0.0251
//
smiles-record: CCc1cc(O)c(F)cc1-c1ccc2c(-c3nc4c([nH]3)CCN(C(=O)c3cnc(N5CCCCC5)cn3)C4)n[nH]c2c1
quantitative-readout: 0.0297
//
smiles-record: CCc1cc(O)ccc1-c1ccc2c(-c3nc4c([nH]3)CN(C(C)=O)CC4)n[nH]c2c1
quantitative-readout: 0.0227
//
smiles-record: C[C@@H]1CCN(C(=O)N2CC[C@@H](S(=O)(=O)c3cccc(O)c3)C2)C[C@@H]1N(C)c1ncnc2[nH]ccc12
quantitative-readout: 0.959
//
smiles-record: CCc1cc(O)ccc1-c1ccc2c(C(=O)NC)n[nH]c2c1
quantitative-readout: 0.796
//
smiles-record: CC(C)c1cc(O)ccc1-c1ccc2c(-c3nc4ccccc4[nH]3)n[nH]c2c1
quantitative-readout: 0.392
